All figures here come from patent US12421253B2.

Parameter: pIC50. Scope: all listed entries.
Target: KRas^G12V (Homo sapiens, UniProt P01116, G12V)
Construct: […]; biotin (biotinylated); purchased Accelegan Inc
Sequence (P01116 1-169 isoform P01116-2 G12V): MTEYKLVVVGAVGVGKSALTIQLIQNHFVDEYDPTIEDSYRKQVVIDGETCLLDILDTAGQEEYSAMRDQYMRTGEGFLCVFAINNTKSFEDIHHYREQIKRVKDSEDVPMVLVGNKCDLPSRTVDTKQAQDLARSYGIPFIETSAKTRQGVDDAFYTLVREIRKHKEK
Protocol: KRas binding assay (TR-FRET displacement of Cy5 labelled tracer)
pIC50: −log10 of the molar value.
Assay metric: pIC50

• CCc1cccc2cccc(N3CCc4c(nc(OCC56CCCN5CCC6)nc4NC4CC(=O)N(c5cnn(C)c5)C4)C3)c12 (stereo not shown) = 5.56
• CCc1cccc2cccc(N3CCc4c(nc(OCC56CCCN5CCC6)nc4NCc4nnc(CSC)[nH]4)C3)c12 = 5.56
• O=C1NC(=O)C2(CCCN(c3nc(OC[C@@]45CCCN4C[C@H](F)C5)nc4c3CCN(c3cc(O)cc5ccc(F)c(Cl)c35)C4)C2)N1 (stereo partly shown) = 7.28
• Nc1cc2n(n1)CCCN(c1nc(OC[C@@]34CCCN3C[C@H](F)C4)nc3c1CCN(c1cc(O)cc4ccc(F)c(Cl)c14)C3)C2 = 8.52
• CCc1cccc2cccc(N3CCc4c(nc(OCC56CCCN5CCC6)nc4N4CCOC5(CCSC5)C4)C3)c12 (stereo not shown) = 5.90
• CCc1cccc2cccc(N3CCc4c(nc(OCC56CCCN5CCC6)nc4NC[C@H]4CCC(=O)N4)C3)c12 = 5.87

###

Test system: PSN1 cells, pERK
Protocol: Inhibition of KRas phosphorylation of ERK (Cisbio HTRF Advanced pERK assay)
Assay type: cell-based
Condition: Homo sapiens, PSN1, 3 h, read-out: Inhibition (HTRF IC50 nM) of KRas-mediated Phosphorylation of ERK, PSN1
Description: Inhibition of KRas Phosphorylation of ERK (HTRF) by Exemplary Compounds of Formula (I) Cisbio HTRF Advanced pERK Assay Catalog #64AERPEH • Day 1: Seed 6,000 cells/well −25 μl/well in 384-well white solid bottom plate; RPM1_10% FBS. […] To harvest cells from flask using 0.05% Trypsin/EDTA solution. Add 10 mL of media to stop trypsinizing. […] At the end of incubation, read plate on the Envision after centrifuging plate 30 sec×1000 rpm.
Assay metric: IC50 (nM)

• CCc1c(F)ccc2cc(O)cc(N3CCc4c(nc(OC[C@@]56CCCN5C[C@H](F)C6)nc4N4CCCC5(CNC5=O)C4)C3)c12 (stereo partly drawn) = 2630
• CCc1c(F)ccc2cc(O)cc(N3CCc4c(nc(OCC56CCCN5CCC6)nc4N4CCCn5nc(C(=O)N(C)C)cc5C4)C3)c12 = 7860
• C[C@@]1(O)CCCN(c2nc(OC[C@@]34CCCN3C[C@H](F)C4)nc3c2CCN(c2cc(O)cc4ccc(F)c(Br)c24)C3)C1 = 2820
• O=S1(=O)NCC2(CCCN(c3nc(OC[C@@]45CCCN4C[C@H](F)C5)nc4c3CCN(c3cc(O)cc5ccc(F)c(Br)c35)C4)C2)N1 (stereo partly drawn) = 328
• CN(C)C(=O)c1cc2n(n1)CCCN(c1nc(OC[C@@]34CCCN3C[C@H](F)C4)nc3c1CCN(c1cc(O)cc4ccc(F)c(Br)c14)C3)C2 = 6070
• CCc1c(F)ccc2cc(O)cc(N3CCc4c(nc(OC[C@@]56CCCN5C[C@H](F)C6)nc4N4CCCC5(C4)NC(=O)NC5=O)C3)c12 (stereo partly drawn) = 25.3
• CCc1c(F)ccc2cc(O)cc(N3CCc4c(nc(OC[C@@]56CCCN5C[C@H](F)C6)nc4N4CC5C(=O)NC(=O)C5C4)C3)c12 (stereo partly drawn) = 2950
• CC1(O)COCCN(c2nc(OC[C@@]34CCCN3C[C@H](F)C4)nc3c2CCN(c2cc(O)cc4ccc(F)c(Cl)c24)C3)C1 (stereo partly drawn) = 4050
• CCc1c(F)ccc2cc(O)cc(N3CCc4c(nc(OC[C@@]56CCCN5C[C@H](F)C6)nc4N4CCCn5nc(C(=O)NC(C)C)cc5C4)C3)c12 = 2880
• CCc1c(F)ccc2cc(O)cc(N3CCc4c(nc(OC[C@@]56CCCN5C[C@H](F)C6)nc4N4CC5CC(O)C(C5)C4)C3)c12 (stereo partly drawn) = 6960
• Oc1cc(N2CCc3c(nc(OC[C@@]45CCCN4C[C@H](F)C5)nc3N3CCCC4(CC(O)C4)C3)C2)c2c(Cl)c(F)ccc2c1 (stereo partly drawn) = 6040
• CCc1c(F)ccc2cc(O)cc(N3CCc4c(nc(OC[C@@]56CCCN5C[C@H](F)C6)nc4N4CCCC5(CNC(=O)N5)C4)C3)c12 (stereo partly drawn) = 325
• O=C1NC(=O)C2CN(c3nc(OC[C@@]45CCCN4C[C@H](F)C5)nc4c3CCN(c3cc(O)cc5ccc(F)c(Cl)c35)C4)CC12 (stereo partly drawn) = 2770
• CCc1c(F)ccc2cc(O)cc(N3CCc4c(nc(OC[C@@]56CCCN5C[C@H](F)C6)nc4N4CCCn5nc(C(=O)N6CCCC6)cc5C4)C3)c12 = 2960
• O=C1NC(=O)C2CN(c3nc(OC[C@@]45CCCN4C[C@H](F)C5)nc4c3CCN(c3cc(O)cc5ccc(F)c(Br)c35)C4)CC12 (stereo partly drawn) = 2790
• CCc1c(F)ccc2cc(O)cc(N3CCc4c(nc(OC[C@@]56CCCN5C[C@H](F)C6)nc4N4CCCC5(CNC(=O)C5)C4)C3)c12 (stereo partly drawn) = 1690
• CCc1c(F)ccc2cc(O)cc(N3CCc4c(nc(OC[C@@]56CCCN5C[C@H](F)C6)nc4N4CCOCC(n5cccn5)C4)C3)c12 (stereo partly drawn) = 8320
• Oc1cc(N2CCc3c(nc(OC[C@@]45CCCN4C[C@H](F)C5)nc3N3CC4CC(O)C(C4)C3)C2)c2c(Cl)c(F)ccc2c1 (stereo partly drawn) = 7050
• CCc1c(F)ccc2cc(O)cc(N3CCc4c(nc(OC[C@@]56CCCN5C[C@H](F)C6)nc4N4CCOCC(CO)C4)C3)c12 (stereo partly drawn) = 4420
